Give autophagy induction for every item shown.
test system: U2OS; assay: Here: values are normalized to the negative (DMSO; defined as 0% autophagy induction) and positive (250nM Torin1; mTOR inhibitor; defined as maximal inducer of autophagy = 100%) control compounds and represented as % of autophagy induction. […] The impact of autophagy induction on cells is complex and depends on the affected target. As such, the magnitude of a phenotype may not be equally mirrored in the %-value of autophagy induction and vice versa. The dynamics of the induction may indicate the mode of activation: e.g. activation via phosphorylation or a signaling cascade may occur fast, while activation via transcription factors may take considerably longer. […] Of note, treatment concentrations may be sub-optimal for specific compounds, leading to false negative annotations.; type: functional, Homo sapiens; conditions: Compound Concentration 2 uM, Timepoint 36 hours, Culturing Media DMEM, 1 % Penicillin/Streptomycin, 10% Fetal bovin serum Add-On: No, Screening Media Control DMEM, Screening Media Samples DMEM
The response must be a number in % with no trailing unit.

Please fill in: autophagy induction reported for "Cc1cn2cc(CC(=O)N3CCC4(CC3)CN(Cc3ccc(-n5nccn5)cc3Cl)C4)nc2s1" = -1.585

The compound identified as C[C@@H](NCCc1ccc(O)cc1)[C@@H](O)c1ccc(O)cc1.Cl (relative stereo) registered its autophagy induction at -57.3104

# compound "Cc1csc2c(N[C@@H](C)CN3CCN(S(=O)(=O)c4ccc(Cl)c(Cl)c4)CC3)ncnc12" ; its autophagy induction = -0.3647

For reference, reported autophagy induction for CC(C)(N)C(=O)N[C@H](COCc1ccccc1)C(=O)N1CCC2(CC1)CN(S(C)(=O)=O)c1ccccc12.CS(=O)(=O)O [IBUTAMOREN MESYLATE] stands at -0.1276

Looking up CC(C)NCC(O)c1ccc(N)c(C#N)c1 (stereo not given) , I found its autophagy induction recorded as 0.3661

response.value for "COc1ccc(NS(=O)(=O)c2sc3ccc(Cl)cc3c2C)cc1N1CCNCC1.Cl" (field: autophagy induction) = -59.1656

Reported autophagy induction of "Cc1cc([C@@H](C)Nc2cccc(-c3cc(C)c(C(=O)N[C@@H](C)C(=O)O)c(C)c3)c2)ccc1Cl" : -0.1787

Reported autophagy induction of "CC1=C2C[C@H]3[C@@H](CC=C4C[C@@H](O)CC[C@@]43C)[C@@H]2CC[C@]12O[C@@H]1C[C@H](C)CN[C@H]1[C@H]2C" : -62.0777

The compound listed as "CCCCC#Cc1nc(NC)c2ncn([C@@H]3O[C@H](CO)[C@@H](O)[C@H]3O)c2n1" shows autophagy induction equal to -60.437

// autophagy induction lookup, compound = Cc1c(OCc2cccc(-c3ccc(C(=O)O)cc3)c2)cc2c(c1C)C(=O)C(C1CCCC1)C2 (stereo not given) , result: -1.767
